# Test system: Penicillium
# assay-details: Antifungal activity against Penicillium
# Format: functional
Activity calls are given as the source filed them. The calls are words filed in the database; no cut-off is given here.
value-kind: inhibition zone (IZ)

CC(C)C1/C(=N/OC(=O)Oc2ccccc2)CC(c2ccccc2)N(C)C1c1ccccc1 (stereo not given) | 17 mm
CC1/C(=N/O)CC(c2ccccc2)N(C)C1c1ccccc1 (stereo not given) | inactive
CC(Cl)OC(=O)O/N=C1\CC(c2ccccc2)N(C)C(c2ccccc2)C1C (stereo not given) | 17 mm
CCC1/C(=N/OC(=O)OC(C)Cl)CC(c2ccccc2)N(C)C1c1ccccc1 (stereo not given) | 17 mm
CCC1/C(=N/OC(=O)Oc2ccccc2)CC(c2ccccc2)N(C)C1c1ccccc1 (stereo not given) | 17 mm
CC(C)C1/C(=N/O)CC(c2ccccc2)N(C)C1c1ccccc1 (stereo not given) | 12 mm
CCOC(=O)O/N=C1\CC(c2ccccc2)N(C)C(c2ccccc2)C1CC (stereo not given) | inactive
COC(=O)O/N=C1\CC(c2ccccc2)N(C)C(c2ccccc2)C1C (stereo not given) | inactive
CCC1/C(=N/O)CC(c2ccccc2)N(C)C1c1ccccc1 (stereo not given) | inactive

Please find the next compound below.
Look at this compound and give its reported inhibition zone (IZ). CCOC(=O)O/N=C1\CC(c2ccccc2)N(C)C(c2ccccc2)C1C (stereo not given) inactive

###

# System: Pseudomonas aeruginosa
# assay-details: Antibacterial activity against Pseudomonas aeruginosa
# Assay type: functional
Calls of active or inactive are those of the source. The rule behind the calls is not given here.
value-kind: inhibition zone (IZ)

Example compounds with recorded inhibition zone (IZ):
CCC1/C(=N/OC(=O)Oc2ccccc2)CC(c2ccccc2)N(C)C1c1ccccc1 (stereo unspecified) | 17 mm
CC(Cl)OC(=O)O/N=C1\CC(c2ccccc2)N(C)C(c2ccccc2)C1C (stereo unspecified) | 22 mm
CC(C)C1/C(=N/O)CC(c2ccccc2)N(C)C1c1ccccc1 (stereo unspecified) | 12 mm
CCC1/C(=N/OC(=O)OC)CC(c2ccccc2)N(C)C1c1ccccc1 (stereo unspecified) | inactive
CC(C)C1/C(=N/OC(=O)Oc2ccccc2)CC(c2ccccc2)N(C)C1c1ccccc1 (stereo unspecified) | 22 mm

Please find the next compound below.
Under Pseudomonas aeruginosa: inhibition zone (IZ) value of CCOC(=O)O/N=C1\CC(c2ccccc2)N(C)C(c2ccccc2)C1CC (stereo unspecified) ? inactive

###

# System: Aspergillus flavus
# assay-details: Antifungal activity against Aspergillus flavus; further: test concentration or dose not given here
# Assay type: functional
Activity calls are given as the source filed them. The rule behind the calls is not given here.
value-kind: inhibition zone (IZ)

Example compounds with recorded inhibition zone (IZ):
CC(Cl)OC(=O)O/N=C1\CC(c2ccccc2)N(C)C(c2ccccc2)C1C(C)C (stereo unspecified) | 22 mm
CC(C)C1/C(=N/OC(=O)Oc2ccccc2)CC(c2ccccc2)N(C)C1c1ccccc1 (stereo unspecified) | 17 mm
C[C@@H]1[C@H](O)[C@@H](C)/C=C/C=C/C=C/C=C/C=C/C=C/C=C/[C@H](O[C@@H]2O[C@H](C)[C@@H](O)[C@H](N)[C@@H]2O)C[C@@H]2O[C@](O)(C[C@@H](O)C[C@@H](O)[C@H](O)CC[C@@H](O)C[C@@H](O)CC(=O)O[C@H]1C)C[C@H](O)[C@H]2C(=O)O | 22 mm
CCC1/C(=N/OC(=O)OC(C)Cl)CC(c2ccccc2)N(C)C1c1ccccc1 (stereo unspecified) | 17 mm
CCOC(=O)O/N=C1\CC(c2ccccc2)N(C)C(c2ccccc2)C1CC (stereo unspecified) | inactive

Look at this compound and give its reported inhibition zone (IZ). CC1/C(=N/O)CC(c2ccccc2)N(C)C1c1ccccc1 (stereo unspecified) inactive

Look at this compound and give its reported inhibition zone (IZ). CCC1/C(=N/OC(=O)Oc2ccccc2)CC(c2ccccc2)N(C)C1c1ccccc1 (stereo unspecified) 17 mm

###

Listing: MIC of selected compounds
# Tested on: Fusarium
# assay-details: Antifungal activity against Fusarium after 72 to 96 hrs by broth dilution method
# Assay type: functional

Example compounds with recorded MIC:
C[C@@H]1[C@H](O)[C@@H](C)/C=C/C=C/C=C/C=C/C=C/C=C/C=C/[C@H](O[C@@H]2O[C@H](C)[C@@H](O)[C@H](N)[C@@H]2O)C[C@@H]2O[C@](O)(C[C@@H](O)C[C@@H](O)[C@H](O)CC[C@@H](O)C[C@@H](O)CC(=O)O[C@H]1C)C[C@H](O)[C@H]2C(=O)O [AMPHOTERICIN B] | 25 µg/mL
CC1/C(=N/OC(=O)Oc2ccccc2)CC(c2ccccc2)N(C)C1c1ccccc1 (stereo not given) | 25 µg/mL
CC(C)C1/C(=N/O)CC(c2ccccc2)N(C)C1c1ccccc1 (stereo not given) | 200 µg/mL
CCC1/C(=N/OC(=O)OC)CC(c2ccccc2)N(C)C1c1ccccc1 (stereo not given) | 200 µg/mL

Please find the next compound below.
Look at this compound and give its reported MIC. CCOC(=O)O/N=C1\CC(c2ccccc2)N(C)C(c2ccccc2)C1C(C)C (stereo not given) 200 µg/mL

###

Listing: MIC of selected molecules
# System: Fusarium
# assay-details: Antifungal activity against Fusarium after 72 to 96 hrs by broth dilution method
# Assay type: functional
Lab book: enter the figure in µg/mL, no units written.

CCOC(=O)O/N=C1\CC(c2ccccc2)N(C)C(c2ccccc2)C1CC (stereo not given) | 200
CCOC(=O)O/N=C1\CC(c2ccccc2)N(C)C(c2ccccc2)C1C (stereo not given) | 200
CCC1/C(=N/OC(=O)Oc2ccccc2)CC(c2ccccc2)N(C)C1c1ccccc1 (stereo not given) | 50

Look at this molecule and give its reported MIC. CC(Cl)OC(=O)O/N=C1\CC(c2ccccc2)N(C)C(c2ccccc2)C1C(C)C (stereo not given) 12.5

Look at this molecule and give its reported MIC. COC(=O)O/N=C1\CC(c2ccccc2)N(C)C(c2ccccc2)C1C(C)C (stereo not given) 200

###

# Test system: Fusarium
# assay-details: Antifungal activity against Fusarium after 72 to 96 hrs by broth dilution method
# Type: functional
value-kind: MIC (µg/mL)
Lab book: enter the figure in µg/mL, no units written.

CC(Cl)OC(=O)O/N=C1\CC(c2ccccc2)N(C)C(c2ccccc2)C1C (stereo unspecified) | 25
CC(C)C1/C(=N/OC(=O)Oc2ccccc2)CC(c2ccccc2)N(C)C1c1ccccc1 (stereo unspecified) | 25
CCC1/C(=N/O)CC(c2ccccc2)N(C)C1c1ccccc1 (stereo unspecified) | 200
COC(=O)O/N=C1\CC(c2ccccc2)N(C)C(c2ccccc2)C1C (stereo unspecified) | 200
CCC1/C(=N/OC(=O)OC(C)Cl)CC(c2ccccc2)N(C)C1c1ccccc1 (stereo unspecified) | 12.5

Please find the next molecule below.
Under Fusarium: MIC value of CC1/C(=N/O)CC(c2ccccc2)N(C)C1c1ccccc1 (stereo unspecified) ? 200

###

# System: Rhizopus
# assay-details: Antifungal activity against Rhizopus; on IZ: test concentration or dose not given here
# Format: functional
The source made the active and inactive calls. The calls are words filed in the database; no cut-off is given here.
value-kind: inhibition zone (IZ)

Example compounds with recorded inhibition zone (IZ):
CC1/C(=N/OC(=O)Oc2ccccc2)CC(c2ccccc2)N(C)C1c1ccccc1 (stereo unspecified) | 12 mm
CCOC(=O)O/N=C1\CC(c2ccccc2)N(C)C(c2ccccc2)C1C(C)C (stereo unspecified) | inactive
CC1/C(=N/O)CC(c2ccccc2)N(C)C1c1ccccc1 (stereo unspecified) | 12 mm
CCC1/C(=N/O)CC(c2ccccc2)N(C)C1c1ccccc1 (stereo unspecified) | 12 mm
CCC1/C(=N/OC(=O)OC(C)Cl)CC(c2ccccc2)N(C)C1c1ccccc1 (stereo unspecified) | 17 mm
C[C@@H]1[C@H](O)[C@@H](C)/C=C/C=C/C=C/C=C/C=C/C=C/C=C/[C@H](O[C@@H]2O[C@H](C)[C@@H](O)[C@H](N)[C@@H]2O)C[C@@H]2O[C@](O)(C[C@@H](O)C[C@@H](O)[C@H](O)CC[C@@H](O)C[C@@H](O)CC(=O)O[C@H]1C)C[C@H](O)[C@H]2C(=O)O | 21 mm
CC(C)C1/C(=N/OC(=O)Oc2ccccc2)CC(c2ccccc2)N(C)C1c1ccccc1 (stereo unspecified) | 17 mm
CC(C)C1/C(=N/O)CC(c2ccccc2)N(C)C1c1ccccc1 (stereo unspecified) | 12 mm

Look at this compound and give its reported inhibition zone (IZ). CC(Cl)OC(=O)O/N=C1\CC(c2ccccc2)N(C)C(c2ccccc2)C1C (stereo unspecified) 17 mm

Look at this compound and give its reported inhibition zone (IZ). CCC1/C(=N/OC(=O)OC)CC(c2ccccc2)N(C)C1c1ccccc1 (stereo unspecified) 12 mm

Look at this compound and give its reported inhibition zone (IZ). CCC1/C(=N/OC(=O)Oc2ccccc2)CC(c2ccccc2)N(C)C1c1ccccc1 (stereo unspecified) 17 mm

###

# System: Penicillium
# assay-details: Antifungal activity against Penicillium
# Format: functional
Calls of active or inactive are those of the source. No cut-off for these calls is given here.
value-kind: inhibition zone (IZ)

CCOC(=O)O/N=C1\CC(c2ccccc2)N(C)C(c2ccccc2)C1C(C)C (stereo unspecified) | inactive
C[C@@H]1[C@H](O)[C@@H](C)/C=C/C=C/C=C/C=C/C=C/C=C/C=C/[C@H](O[C@@H]2O[C@H](C)[C@@H](O)[C@H](N)[C@@H]2O)C[C@@H]2O[C@](O)(C[C@@H](O)C[C@@H](O)[C@H](O)CC[C@@H](O)C[C@@H](O)CC(=O)O[C@H]1C)C[C@H](O)[C@H]2C(=O)O | 22 mm
CCC1/C(=N/OC(=O)OC)CC(c2ccccc2)N(C)C1c1ccccc1 (stereo unspecified) | inactive
CC(Cl)OC(=O)O/N=C1\CC(c2ccccc2)N(C)C(c2ccccc2)C1C(C)C (stereo unspecified) | 32 mm
CC1/C(=N/OC(=O)Oc2ccccc2)CC(c2ccccc2)N(C)C1c1ccccc1 (stereo unspecified) | 12 mm

Please find the next compound below.
Look at this compound and give its reported inhibition zone (IZ). COC(=O)O/N=C1\CC(c2ccccc2)N(C)C(c2ccccc2)C1C(C)C (stereo unspecified) inactive
